Source of measurements: the supplement of paper PMC9112550

Each entry below lists one item and its recorded shrunken log2 fold change value.
Test system: Escherichia coli TOP10
Assay: shrunken log2 fold change of peptide-encoding DNA abundance (4.5 h post-induction vs induction); higher = less antimicrobial activity (less host growth inhibition)
Settings: time post-induction: 4.5 h; library: site-saturation at positions 5, 18, 19, 20

Some sequences with known shrunken log2 fold change results, for comparison:
RRIRGRPPRLPRPRPRPFMIPRP -0.0383
RRIRYRPPRLPRPRPRPSNYPRP -1.28
RRIRHRPPRLPRPRPRPQRQPRP 0.0621

Input RRIRHRPPRLPRPRPRPLQTPRP . Output shrunken log2 fold change: 0.139

Input RRIRKRPPRLPRPRPRPSPEPRP . Output shrunken log2 fold change: 0.525

Input RRIRGRPPRLPRPRPRPIQNPRP . Output shrunken log2 fold change: 0.0261

Input RRIRMRPPRLPRPRPRPFICPRP . Output shrunken log2 fold change: 0.0468

Input RRIRARPPRLPRPRPRPFFQPRP . Output shrunken log2 fold change: 0.107

====

Test system: Escherichia coli TOP10
Experiment: shrunken log2 fold change of peptide-encoding DNA abundance (4.5 h post-induction vs induction); higher = less antimicrobial activity (less host growth inhibition)
Settings: time post-induction: 4.5 h; library: site-saturation at positions 5, 18, 19, 20
reported property: shrunken log2 fold change

Some sequences with known shrunken log2 fold change results, for comparison:
RRIRLRPPRLPRPRPRPYLMPRP -0.69
RRIRRRPPRLPRPRPRPYDMPRP -0.532
RRIRVRPPRLPRPRPRPRDRPRP 0.46
RRIRPRPPRLPRPRPRPGSGPRP 1.05

Tested on Escherichia coli TOP10: RRIRPRPPRLPRPRPRPQALPRP . Observed shrunken log2 fold change: 0.339

Tested on Escherichia coli TOP10: RRIRHRPPRLPRPRPRPRQCPRP . Observed shrunken log2 fold change: -0.0969

Tested on Escherichia coli TOP10: RRIRFRPPRLPRPRPRPEQPPRP . Observed shrunken log2 fold change: 0.0505

Tested on Escherichia coli TOP10: RRIRARPPRLPRPRPRPIQHPRP . Observed shrunken log2 fold change: -0.132

Tested on Escherichia coli TOP10: RRIRYRPPRLPRPRPRPRDEPRP . Observed shrunken log2 fold change: 0.047

Tested on Escherichia coli TOP10: RRIRNRPPRLPRPRPRPDIIPRP . Observed shrunken log2 fold change: -0.0869

Tested on Escherichia coli TOP10: RRIRCRPPRLPRPRPRPYAAPRP . Observed shrunken log2 fold change: -0.269

Tested on Escherichia coli TOP10: RRIRIRPPRLPRPRPRPDWFPRP . Observed shrunken log2 fold change: 0.0564

====

Each entry below lists one item and its recorded shrunken log2 fold change value.
Tested on: Escherichia coli TOP10
Assay: shrunken log2 fold change of peptide-encoding DNA abundance (4.5 h post-induction vs induction); higher = less antimicrobial activity (less host growth inhibition)
Details: time post-induction: 4.5 h; library: site-saturation at positions 5, 18, 19, 20

Some sequences with known shrunken log2 fold change results, for comparison:
RRIRKRPPRLPRPRPRPSICPRP 0.242
RRIRIRPPRLPRPRPRPYEFPRP 0.00826
RRIRARPPRLPRPRPRPNTVPRP 0.0514

Tested on Escherichia coli TOP10: RRIRCRPPRLPRPRPRPNMTPRP . Observed shrunken log2 fold change: -0.229

Tested on Escherichia coli TOP10: RRIRCRPPRLPRPRPRPNIYPRP . Observed shrunken log2 fold change: -0.588

Tested on Escherichia coli TOP10: RRIRWRPPRLPRPRPRPFGHPRP . Observed shrunken log2 fold change: -0.102

Tested on Escherichia coli TOP10: RRIRTRPPRLPRPRPRPQRCPRP . Observed shrunken log2 fold change: 0.00192

Tested on Escherichia coli TOP10: RRIRGRPPRLPRPRPRPMNGPRP . Observed shrunken log2 fold change: 0.00709

Tested on Escherichia coli TOP10: RRIRVRPPRLPRPRPRPCLPPRP . Observed shrunken log2 fold change: -0.219

====

Each entry below lists one item and its recorded shrunken log2 fold change value.
Test system: Escherichia coli TOP10
Experiment: shrunken log2 fold change of peptide-encoding DNA abundance (4.5 h post-induction vs induction); higher = less antimicrobial activity (less host growth inhibition)
Settings: time post-induction: 4.5 h; library: site-saturation at positions 5, 18, 19, 20
Please give the numeric answer without any surrounding text.

RRIRWRPPRLPRPRPRPEDGPRP 0.173
RRIRDRPPRLPRPRPRPSKPPRP -0.0858
RRIRYRPPRLPRPRPRPHLSPRP -0.235
RRIRVRPPRLPRPRPRPPIFPRP -0.067

Input RRIRQRPPRLPRPRPRPQMSPRP . Output shrunken log2 fold change: -0.0844

Input RRIRNRPPRLPRPRPRPYLQPRP . Output shrunken log2 fold change: -0.00906

Input RRIRGRPPRLPRPRPRPREDPRP . Output shrunken log2 fold change: 1.47

Input RRIRYRPPRLPRPRPRPDVVPRP . Output shrunken log2 fold change: 0.0135

====

Test system: Escherichia coli TOP10
Experiment: shrunken log2 fold change of peptide-encoding DNA abundance (4.5 h post-induction vs induction); higher = less antimicrobial activity (less host growth inhibition)
Settings: time post-induction: 4.5 h; library: site-saturation at positions 5, 18, 19, 20
Kind request: treat 0.1 as inclusive, so shrunken log2 fold change at 0.1 or higher is met, anything lower is not met.

Answered examples (5):
RRIRHRPPRLPRPRPRPVSKPRP not met
RRIRNRPPRLPRPRPRPDFFPRP not met
RRIRNRPPRLPRPRPRPGDIPRP not met
RRIRLRPPRLPRPRPRPHGCPRP not met
RRIRVRPPRLPRPRPRPEPPPRP met

Lookup: API: above_or_equal(metric=shrunken log2 fold change, cutoff=0.1) for item RRIRLRPPRLPRPRPRPNRGPRP
Found: not met

Lookup: API: above_or_equal(metric=shrunken log2 fold change, cutoff=0.1) for item RRIRNRPPRLPRPRPRPIETPRP
Found: not met

Lookup: API: above_or_equal(metric=shrunken log2 fold change, cutoff=0.1) for item RRIRTRPPRLPRPRPRPDQEPRP
Found: met

====

Test system: Escherichia coli TOP10
Test: shrunken log2 fold change of peptide-encoding DNA abundance (4.5 h post-induction vs induction); higher = less antimicrobial activity (less host growth inhibition)
Conditions: time post-induction: 4.5 h; library: site-saturation at positions 5, 18, 19, 20
reported property: shrunken log2 fold change
Please give the numeric answer without any surrounding text.

RRIRRRPPRLPRPRPRPPYCPRP 0.256

Input RRIRIRPPRLPRPRPRPPTTPRP . Output shrunken log2 fold change: 0.0744

Input RRIRDRPPRLPRPRPRPKCFPRP . Output shrunken log2 fold change: 0.0766

Input RRIRQRPPRLPRPRPRPVKQPRP . Output shrunken log2 fold change: -0.0153

Input RRIRVRPPRLPRPRPRPKAWPRP . Output shrunken log2 fold change: 0.0531

Input RRIRVRPPRLPRPRPRPNHAPRP . Output shrunken log2 fold change: 0.0625

Input RRIRMRPPRLPRPRPRPAKWPRP . Output shrunken log2 fold change: 0.708

Input RRIRSRPPRLPRPRPRPLNEPRP . Output shrunken log2 fold change: -0.177

Input RRIRLRPPRLPRPRPRPPRFPRP . Output shrunken log2 fold change: 0.209

Input RRIRDRPPRLPRPRPRPDALPRP . Output shrunken log2 fold change: 0.306

====

Test system: Escherichia coli TOP10
Experiment: shrunken log2 fold change of peptide-encoding DNA abundance (4.5 h post-induction vs induction); higher = less antimicrobial activity (less host growth inhibition)
Details: time post-induction: 4.5 h; library: site-saturation at positions 5, 18, 19, 20
reported property: shrunken log2 fold change
Please give the numeric answer without any surrounding text.

Some sequences with known shrunken log2 fold change results, for comparison:
RRIRCRPPRLPRPRPRPKKDPRP -0.000499
RRIRPRPPRLPRPRPRPPMTPRP 0.0831
RRIRFRPPRLPRPRPRPCPNPRP 0.044

Input RRIRERPPRLPRPRPRPFFRPRP . Output shrunken log2 fold change: -0.112

Input RRIRYRPPRLPRPRPRPGPFPRP . Output shrunken log2 fold change: -0.189

Input RRIRWRPPRLPRPRPRPADHPRP . Output shrunken log2 fold change: 0.193

Input RRIRCRPPRLPRPRPRPTTTPRP . Output shrunken log2 fold change: -0.0127

Input RRIRKRPPRLPRPRPRPGKEPRP . Output shrunken log2 fold change: 0.266

====

Tested on: Escherichia coli TOP10;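 note: peptides expressed intracellularly from a pBAD plasmid library in pooled LB shake-flask culture, induced with 0.3% L-arabinose, DNA abundance read by NGS, three biological replicates, DESeq2 with apeglm shrinkage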
Assay: shrunken log2 fold change of peptide-encoding DNA abundance (4.5 h post-induction vs induction); higher = less antimicrobial activity (less host growth inhibition)
Conditions: time post-induction: 4.5 h; library: site-saturation at positions 5, 18, 19, 20
// class assignment uses shrunken log2 fold change with these ranges: b0 = under -0.4, b1 = from -0.4 up to 0.2, b2 = 0.2 and over

RRIRNRPPRLPRPRPRPTHQPRP b1

Lookup: Bin? RRIRGRPPRLPRPRPRPPKLPRP
Found: b2

Lookup: Bin? RRIRARPPRLPRPRPRPCRIPRP
Found: b1

Lookup: Bin? RRIRARPPRLPRPRPRPPHRPRP
Found: b2

Lookup: Bin? RRIRKRPPRLPRPRPRPDKSPRP
Found: b1

Lookup: Bin? RRIRERPPRLPRPRPRPGLEPRP
Found: b1
